# Test system: velvetleaf (Abutilon theophrasti)
# Experimental Protocol: Test B pre-/postemergence plant response
# Format: in vivo
# Measurement Setup: Postemergence, 250 g ai/ha; scale 0 to 100 (0 no effect, 100 complete control); 13 to 15 days
Overview of reported Plant response rating, Velvetleaf across a group of compounds:

Here is how some compounds turned out for Plant response rating, Velvetleaf.
>>> print(df.to_string())
                                   compound  observed_value
0  CCCCn1c(-c2cc(F)cc(F)c2)ncc(C(=O)C2=C(O)C3CCC(C3)C2=O)c1=O (stereo not drawn)             100
1  CCCCn1c(-c2cccc(Cl)c2)ncc(C(=O)C2=C(O)CCCC2=O)c1=O             100
2  CCCn1c(-c2cc(F)cc(F)c2)ncc(C(=O)C2=C(O)CCCC2=O)c1=O             100
3  COCCCn1c(-c2cccc(F)c2)ncc(C(=O)C2=C(O)C3CCC(C3)C2=O)c1=O (stereo not drawn)             100
4  O=C1CCCC(O)=C1C(=O)c1cnc(-c2ccccc2)n(C2CCSCC2)c1=O              95

Could you now look at the following compound, please?
Return reported Plant response rating, Velvetleaf for target or system velvetleaf (Abutilon theophrasti), item O=C1CCCC(O)=C1C(=O)c1cnc(-c2cccs2)n(C2CCCCC2)c1=O .
100

###

Plant response rating, Lambsquarters by entry:
# Test system: lambsquarters (Chenopodium album)
# Experimental Protocol: Test B pre-/postemergence plant response
# Assay type: in vivo
# Measurement Setup: Postemergence, 125 g ai/ha; visual rating after 13 to 15 days, scale 0 (no effect) to 100 (complete control)
# Text: […] Treated plants and controls were maintained in a greenhouse for 13 to 15 days, after which time all treated plants were visually evaluated and compared to controls. […]
Format: numeric value only, no unit, no commentary.

In [3]: df
Out[3]:
                                   compound  observed_value
0  Cc1ccc(-c2ncc(C(=O)C3=C(O)CCCC3=O)c(=O)n2-c2ccccc2)cc1 [Compound 80]              98
1  Cc1ccccc1-n1c(-c2ccccc2)ncc(C(=O)C2=C(O)CCCC2=O)c1=O [Compound 12]              98
2  CCCCc1ncc(C(=O)C2=C(O)CCCC2=O)c(=O)n1-c1cccc(C)c1 [Compound 63]              98

Moving on to another compound below.
Name the recorded Plant response rating, Lambsquarters of the compound listed here: CCCc1ncc(C(=O)C2=C(O)CCCC2=O)c(=O)n1CC1CCCO1 (stereo not shown) [Compound 74]
95

###

# Tested on: bermudagrass (Cynodon dactylon)
# Experimental Protocol: Test B pre-/postemergence plant response
# Type: in vivo
# Measurement Setup: 31 g ai/ha, postemergence; scale 0 to 100, 0 is no effect, 100 is complete control
Lab note: compare Plant response rating, Bermudagrass against 80. Equal or greater, write fulfilled. Smaller, write not fulfilled.

>>> print(df.to_string())
                              line_notation                     study_system          label
0  CCCCc1ncc(C(=O)C2=C(O)CCCC2=O)c(=O)n1-c1ccc(C)cc1  bermudagrass (Cynodon dactylon)  not fulfilled
1  COCCn1c(-c2ccccc2)ncc(C(=O)C2=C(O)CCCC2=O)c1=O  bermudagrass (Cynodon dactylon)      fulfilled
2  CCCn1c(-c2cccs2)ncc(C(=O)C2=C(O)CCCC2=O)c1=O  bermudagrass (Cynodon dactylon)      fulfilled
3  CCCCn1c(-c2ccccc2)ncc(C(=O)C2=C(O)CCCC2=O)c1=O  bermudagrass (Cynodon dactylon)      fulfilled
4  CCCc1ncc(C(=O)C2=C(O)CCCC2=O)c(=O)n1-c1ccccc1C  bermudagrass (Cynodon dactylon)  not fulfilled

Could you now consider this next molecule?
// inclusive: Plant response rating, Bermudagrass at least 80? input: CCCCn1c(-c2cc(F)cc(F)c2)ncc(C(=O)C2=C(O)CCCC2=O)c1=O
fulfilled
